TARGET OF ASSAY: Par17 (Homo sapiens)
Construct: full‐length Par17 and the N‐terminus of Par17; GST-His6 (PreScission site) (N, cleaved yes); Gly-Pro remnant of the PreScission site (Gly stands at position 1 in place of Met1); made in house; host or cells: E. coli BL21 (DE3) T1r
PROTOCOL TEXT: NMR titration of substrate peptides to 15N-labeled full-length Par17
Assay type: binding
MEASUREMENT SETUP: peptide 5 mM; 300 μM Par17, KPi pH 6.7, 20°C
Starred links: 1 amine or outer side, 2 acyl side, 3 side chain; linkers in the order of their positions; H or OH if unused. Residues, ends and D or L forms follow the SMILES beside them. *: point of attachment. pNA = O=[N+]([O-])c1ccc(N*)cc1; Suc = O=C(CCC(=O)[*:2])[*:1]
Below is a list of entries, each paired with its recorded Combined chemical shift perturbation of full length Par17, 115M value.
PARAMETER: Combined chemical shift perturbation of full length Par17, 115M

- COMPOUND: "CC(C)[C@H](NC(=O)[C@H](C)NC(=O)CCC(=O)O)C(=O)N1CCC[C@H]1C(=O)N[C@@H](Cc1ccccc1)C(=O)Nc1ccc([N+](=O)[O-])cc1 [Val, Suc‐Ala‐Val‐Pro‐Phe‐pNa] (Suc-AVPF-pNA)"
  TARGET OF ASSAY: "Par17 (Homo sapiens)"
  RESULT: "0,11 ppm"
- COMPOUND: "C[C@H](NC(=O)CCC(=O)O)C(=O)N[C@@H](CCCNC(=N)N)C(=O)N1CCC[C@H]1C(=O)N[C@@H](Cc1ccccc1)C(=O)Nc1ccc([N+](=O)[O-])cc1 [Arg, Suc‐Ala‐Arg‐Pro‐Phe‐pNa] (Suc-ARPF-pNA)"
  TARGET OF ASSAY: "Par17 (Homo sapiens)"
  RESULT: "0,0546769 ppm"
- COMPOUND: "C[C@H](NC(=O)CCC(=O)O)C(=O)N[C@@H](CCCCN)C(=O)N1CCC[C@H]1C(=O)N[C@@H](Cc1ccccc1)C(=O)Nc1ccc([N+](=O)[O-])cc1"
  TARGET OF ASSAY: "Par17 (Homo sapiens)"
  RESULT: "0,06478417 ppm"
- COMPOUND: "C[C@H](NC(=O)CCC(=O)O)C(=O)NCC(=O)N1CCC[C@H]1C(=O)N[C@@H](Cc1ccccc1)C(=O)Nc1ccc([N+](=O)[O-])cc1 [Gly, Suc‐Ala‐Gly‐Pro‐Phe‐pNa] (Suc-AGPF-pNA)"
  TARGET OF ASSAY: "Par17 (Homo sapiens)"
  RESULT: "0,081 ppm"

---

TARGET OF ASSAY: Par17 (Homo sapiens)
Construct: full‐length Par17 and the N‐terminus of Par17; GST-His6 (PreScission site) (N, cleaved yes); Gly-Pro remnant of the PreScission site (Gly stands at position 1 in place of Met1); made in house; host or cells: E. coli BL21 (DE3) T1r
PROTOCOL TEXT: NMR titration of substrate peptides to 15N-labeled full-length Par17
Format: binding
MEASUREMENT SETUP: peptide 5 mM; 300 μM Par17, KPi pH 6.7, 20°C
Description: The amide signals were assigned and combined chemical shift changes between the signals of free and substrate‐bound isomers were calculated. For NMR measurements, purified and concentrated proteins in salt‐free buffers were mixed with 10% D2O and 1 μL DSS standard. Spectra were measured on an ultra shield 700‐NMR (Bruker, Billerica, US) with a triple resonance cryoprobe (700 MHz). […] Differences in chemical shift changes could be measured up to 0.001 ppm (error in peak picking). […]
Starred links: 1 amine or outer side, 2 acyl side, 3 side chain; linkers in the order of their positions; H or OH if unused. Residues, ends and D or L forms follow the SMILES beside them. *: point of attachment. pNA = O=[N+]([O-])c1ccc(N*)cc1; Suc = O=C(CCC(=O)[*:2])[*:1]
Below is a list of entries, each paired with its recorded Combined chemical shift perturbation of full length Par17, 119F value.
PARAMETER: Combined chemical shift perturbation of full length Par17, 119F

- COMPOUND: "C[C@H](NC(=O)CCC(=O)O)C(=O)NCC(=O)N1CCC[C@H]1C(=O)N[C@@H](Cc1ccccc1)C(=O)Nc1ccc([N+](=O)[O-])cc1 [Gly, Suc‐Ala‐Gly‐Pro‐Phe‐pNa] (Suc-AGPF-pNA)"
  RESULT: "0,113 ppm"
- COMPOUND: "CC(C)[C@H](NC(=O)[C@H](C)NC(=O)CCC(=O)O)C(=O)N1CCC[C@H]1C(=O)N[C@@H](Cc1ccccc1)C(=O)Nc1ccc([N+](=O)[O-])cc1 [Val, Suc‐Ala‐Val‐Pro‐Phe‐pNa] (Suc-AVPF-pNA)"
  RESULT: "0,167 ppm"
- COMPOUND: "C[C@H](NC(=O)CCC(=O)O)C(=O)N[C@@H](CCCCN)C(=O)N1CCC[C@H]1C(=O)N[C@@H](Cc1ccccc1)C(=O)Nc1ccc([N+](=O)[O-])cc1"
  RESULT: "0,08126177 ppm"
- COMPOUND: "C[C@H](NC(=O)CCC(=O)O)C(=O)N[C@@H](CCCNC(=N)N)C(=O)N1CCC[C@H]1C(=O)N[C@@H](Cc1ccccc1)C(=O)Nc1ccc([N+](=O)[O-])cc1 [Arg, Suc‐Ala‐Arg‐Pro‐Phe‐pNa] (Suc-ARPF-pNA)"
  RESULT: "0,06351885 ppm"

---

TARGET OF ASSAY: Par17 (Homo sapiens, UniProt Q9Y237)
Construct: full‐length Par17 and the N‐terminus of Par17; GST-His6 (PreScission site) (N, cleaved yes); Gly-Pro remnant of the PreScission site (Gly stands at position 1 in place of Met1); made in house; host or cells: E. coli BL21 (DE3) T1r
Sequence (Q9Y237 1-156 isoform Q9Y237-2): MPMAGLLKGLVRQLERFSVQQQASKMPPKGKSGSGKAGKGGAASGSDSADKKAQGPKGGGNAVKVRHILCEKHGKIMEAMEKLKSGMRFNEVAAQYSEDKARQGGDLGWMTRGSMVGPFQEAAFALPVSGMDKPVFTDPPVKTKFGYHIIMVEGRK
PROTOCOL TEXT: NMR titration of substrate peptides to 15N-labeled full-length Par17
Type: binding
MEASUREMENT SETUP: peptide 3 mM; 300 μM Par17, KPi pH 6.7, 20°C
Starred links: 1 amine or outer side, 2 acyl side, 3 side chain; linkers in the order of their positions; H or OH if unused. Residues, ends and D or L forms follow the SMILES beside them. *: point of attachment. pNA = O=[N+]([O-])c1ccc(N*)cc1; Suc = O=C(CCC(=O)[*:2])[*:1]
Below is a list of entries, each paired with its recorded Combined chemical shift perturbation of full length Par17, 116V value.
PARAMETER: Combined chemical shift perturbation of full length Par17, 116V

- MOLECULE: "C[C@H](NC(=O)CCC(=O)O)C(=O)N[C@@H](CCCCN)C(=O)N1CCC[C@H]1C(=O)N[C@@H](Cc1ccccc1)C(=O)Nc1ccc([N+](=O)[O-])cc1"
  RESULT: "0,18551846 ppm"
- MOLECULE: "C[C@H](NC(=O)CCC(=O)O)C(=O)N[C@@H](CCC(=O)O)C(=O)N1CCC[C@H]1C(=O)N[C@@H](Cc1ccccc1)C(=O)Nc1ccc([N+](=O)[O-])cc1 [Glu, Suc–Ala–Glu–Pro–Phe–pNa] (Suc-AEPF-pNA)"
  RESULT: "0,27245 ppm"
- MOLECULE: "CC(C)[C@H](NC(=O)[C@H](C)NC(=O)CCC(=O)O)C(=O)N1CCC[C@H]1C(=O)N[C@@H](Cc1ccccc1)C(=O)Nc1ccc([N+](=O)[O-])cc1 [Val, Suc‐Ala‐Val‐Pro‐Phe‐pNa] (Suc-AVPF-pNA)"
  RESULT: "0,326 ppm"

---

TARGET OF ASSAY: Par17 (Homo sapiens)
Construct: full‐length Par17 and the N‐terminus of Par17; GST-His6 (PreScission site) (N, cleaved yes); Gly-Pro remnant of the PreScission site (Gly stands at position 1 in place of Met1); made in house; host or cells: E. coli BL21 (DE3) T1r
PROTOCOL TEXT: NMR titration of substrate peptides to 15N-labeled full-length Par17
Type: binding
MEASUREMENT SETUP: peptide 3 mM; 300 μM Par17, KPi pH 6.7, 20°C
Starred links: 1 amine or outer side, 2 acyl side, 3 side chain; linkers in the order of their positions; H or OH if unused. Residues, ends and D or L forms follow the SMILES beside them. *: point of attachment. pNA = O=[N+]([O-])c1ccc(N*)cc1; Suc = O=C(CCC(=O)[*:2])[*:1]
Below is a list of entries, each paired with its recorded Combined chemical shift perturbation of full length Par17, 115M value.
PARAMETER: Combined chemical shift perturbation of full length Par17, 115M

- COMPOUND: "C[C@H](NC(=O)CCC(=O)O)C(=O)NCC(=O)N1CCC[C@H]1C(=O)N[C@@H](Cc1ccccc1)C(=O)Nc1ccc([N+](=O)[O-])cc1 [Gly, Suc‐Ala‐Gly‐Pro‐Phe‐pNa] (Suc-AGPF-pNA)"
  RESULT: "0,06 ppm"
- COMPOUND: "C[C@H](NC(=O)CCC(=O)O)C(=O)N[C@@H](CCCCN)C(=O)N1CCC[C@H]1C(=O)N[C@@H](Cc1ccccc1)C(=O)Nc1ccc([N+](=O)[O-])cc1"
  RESULT: "0,04495973 ppm"
- COMPOUND: "CC(C)[C@H](NC(=O)[C@H](C)NC(=O)CCC(=O)O)C(=O)N1CCC[C@H]1C(=O)N[C@@H](Cc1ccccc1)C(=O)Nc1ccc([N+](=O)[O-])cc1 [Val, Suc‐Ala‐Val‐Pro‐Phe‐pNa] (Suc-AVPF-pNA)"
  RESULT: "0,084 ppm"
- COMPOUND: "C[C@H](NC(=O)CCC(=O)O)C(=O)N[C@@H](CCCNC(=N)N)C(=O)N1CCC[C@H]1C(=O)N[C@@H](Cc1ccccc1)C(=O)Nc1ccc([N+](=O)[O-])cc1 [Arg, Suc‐Ala‐Arg‐Pro‐Phe‐pNa] (Suc-ARPF-pNA)"
  RESULT: "0,03809928 ppm"
- COMPOUND: "C[C@H](NC(=O)CCC(=O)O)C(=O)N[C@@H](CCC(=O)O)C(=O)N1CCC[C@H]1C(=O)N[C@@H](Cc1ccccc1)C(=O)Nc1ccc([N+](=O)[O-])cc1 [Glu, Suc–Ala–Glu–Pro–Phe–pNa] (Suc-AEPF-pNA)"
  RESULT: "0,13595 ppm"
